- target system: Human Factor B (human) (UniProt P00751)
- Sequence (P00751 26-764 limits assumed): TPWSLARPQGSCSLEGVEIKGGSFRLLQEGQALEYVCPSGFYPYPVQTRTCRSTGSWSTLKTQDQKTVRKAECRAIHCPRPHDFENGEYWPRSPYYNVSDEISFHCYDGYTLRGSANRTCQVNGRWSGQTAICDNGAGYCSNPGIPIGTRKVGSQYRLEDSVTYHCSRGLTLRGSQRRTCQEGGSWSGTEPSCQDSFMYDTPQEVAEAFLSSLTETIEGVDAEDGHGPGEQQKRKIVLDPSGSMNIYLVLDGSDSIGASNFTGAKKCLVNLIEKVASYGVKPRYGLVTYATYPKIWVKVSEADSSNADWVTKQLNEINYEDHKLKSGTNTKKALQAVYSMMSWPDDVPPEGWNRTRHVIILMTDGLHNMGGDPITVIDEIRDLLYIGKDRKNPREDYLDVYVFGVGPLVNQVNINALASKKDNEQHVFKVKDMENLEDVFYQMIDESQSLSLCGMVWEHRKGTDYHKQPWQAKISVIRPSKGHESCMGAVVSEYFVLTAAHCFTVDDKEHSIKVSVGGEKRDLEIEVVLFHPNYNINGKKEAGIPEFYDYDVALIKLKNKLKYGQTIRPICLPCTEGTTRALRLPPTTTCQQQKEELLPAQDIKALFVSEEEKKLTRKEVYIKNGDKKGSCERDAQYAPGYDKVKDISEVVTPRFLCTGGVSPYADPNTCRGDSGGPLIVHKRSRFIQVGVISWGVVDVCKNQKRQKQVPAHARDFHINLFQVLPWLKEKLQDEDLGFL
- test summary: cell-based or functional assay

binder: chymase C22S/F41R/L99H/G151A/F173S/Y215K/R217T/A226R (enzyme) IIGGTESKPHSRPYMAYLEIVTSNGPSKRCGGFLIRRNFVLTAAHCAGRSITVTLGAHNITEEEDTWQKLEVIKQFRHPKYNTSTHHHDIMLLKLKEKASLTLAVGTLPFPSQFNFVPPGRMCRVAGWGRTGVLKPASDTLQEVKLRLMDPQACSHSRDFDHNLQLCVGNPRKTKSAFKGDSGGPLLCAGVAQGIVSKGTSDAKPPRVFTRISHYRPWINQILQAN
fB Cleavage, 64% A2M-depl plasma EC50: 2.88 µM

binder: chymase C22S/L99Y/F173L/K192R/Y215H/R217T/S218V/A226R (enzyme) IIGGTESKPHSRPYMAYLEIVTSNGPSKFCGGFLIRRNFVLTAAHCAGRSITVTLGAHNITEEEDTWQKLEVIKQFRHPKYNTSTYHHDIMLLKLKEKASLTLAVGTLPFPSQFNFVPPGRMCRVAGWGRTGVLKPGSDTLQEVKLRLMDPQACSHLRDFDHNLQLCVGNPRKTKSAFRGDSGGPLLCAGVAQGIVSHGTVDAKPPRVFTRISHYRPWINQILQAN
fB Cleavage, 64% A2M-depl plasma EC50: 4.58 µM

binder: chymase C22S/L99R/F173L/K192R/Y215H/R217T/S218V/A226R (enzyme) IIGGTESKPHSRPYMAYLEIVTSNGPSKFCGGFLIRRNFVLTAAHCAGRSITVTLGAHNITEEEDTWQKLEVIKQFRHPKYNTSTRHHDIMLLKLKEKASLTLAVGTLPFPSQFNFVPPGRMCRVAGWGRTGVLKPGSDTLQEVKLRLMDPQACSHLRDFDHNLQLCVGNPRKTKSAFRGDSGGPLLCAGVAQGIVSHGTVDAKPPRVFTRISHYRPWINQILQAN
fB Cleavage, 64% A2M-depl plasma EC50: 2.29 µM

binder: chymase C22S/F41K/L99H/G151A/F173Y/Y215K/R217S/A226R (enzyme) IIGGTESKPHSRPYMAYLEIVTSNGPSKKCGGFLIRRNFVLTAAHCAGRSITVTLGAHNITEEEDTWQKLEVIKQFRHPKYNTSTHHHDIMLLKLKEKASLTLAVGTLPFPSQFNFVPPGRMCRVAGWGRTGVLKPASDTLQEVKLRLMDPQACSHYRDFDHNLQLCVGNPRKTKSAFKGDSGGPLLCAGVAQGIVSKGSSDAKPPRVFTRISHYRPWINQILQAN
fB Cleavage, 64% A2M-depl plasma EC50: 5.75 µM

// provenance: patent US20240117334A1
